Examples of binders with documented pKd follow.
# TARGET_SYSTEM: DD(E) fragment of fibrin
# ASSAY_OVERVIEW: affinity to DD(E) fragment of fibrin
pKd: −log10 of the molar value. Positions of bridges follow the written chain, without caps; N, C: chain ends. Non-standard residues stand in square brackets, D forms with d. No end group written: not given here. Phe(3-CF3) = N[C@@H](Cc1cccc(C(F)(F)F)c1)C(=O)O; Phe(4-CF3) = N[C@@H](Cc1ccc(C(F)(F)F)cc1)C(=O)O; Bpa = N[C@@H](Cc1ccc(C(=O)c2ccccc2)cc1)C(=O)O; Tyr(3-I) = N[C@@H](Cc1ccc(O)c(I)c1)C(=O)O; Hyp = O=C(O)[C@@H]1C[C@@H](O)CN1; NDecylGly = CCCCCCCCCCNCC(=O)O
MEASURED_PARAMETER: pKd

> print(dat)
                                     binder   value
1  FHC[Hyp][Tyr(3-I)]DLC[Bpa]I (disulfide 3-8 (inferred)) [F-H-C-Hyp-Y(3-I)-D-L-C-Bpa-I]  > 6.40
2  [Phe(4-CF3)]HC[Hyp][Tyr(3-I)]DLCHI (disulfide 3-8 (inferred)) [F(4-CF3)-H-C-Hyp-Y(3-I)-D-L-C-H-I]  > 7.00
3  FHC[Hyp][Tyr(3-I)]DLCH[Phe(3-CF3)] (disulfide 3-8 (inferred)) [F-H-C-Hyp-Y(3-I)-D-L-C-H-F(3-CF3)]  > 7.00
4  LPCDYYGTC[NDecylGly]D (not fully specified; cysteine pairing not given here) [L-P-C-D-Y-Y-G-T-C-n(Decyl)G-D]  > 5.00
5  WECPYGLCWIQ (disulfide 3-8 (inferred)) [W-E-C-P-Y-G-L-C-W-I-Q]  > 6.70
